growth inhibition by entry:
run description: NCI Yeast Anticancer Drug Screen. Data for the bub3 strain (AID 167)
reported conditions: S. cerevisiae bub3 mutant strain, at 50.0 µM, hits give high values
About 79,000 compounds went through this panel and 15% of them were active in at least one assay; those are over-represented in the sample as a whole.

compound: COC(=Nc1cccc2ccccc12)Nc1cccc2ccccc12
unit of measurement: %
growth inhibition: -2.3
//
compound: COc1c2c(cc3c1-c1c(cc4c(c1OC)OCO4)CC(C)C(C)C3)OCO2 (stereo not given)
unit of measurement: %
growth inhibition: 40.1
//
compound: NC(=O)/C(=C\c1ccc(OCc2ccccc2)c(OCc2ccccc2)c1)NC(=O)c1ccccc1
unit of measurement: %
growth inhibition: -3.65
//
compound: CCC(O)(Cc1ccc(OC)cc1)c1ccc(OC)cc1 (stereo not given)
unit of measurement: %
growth inhibition: 11.7
//
compound: Cc1cc(NS(=O)(=O)c2ccc(N=[N+]([O-])c3ccc(S(=O)(=O)Nc4cc(C)on4)cc3)cc2)no1
unit of measurement: %
growth inhibition: -13.2
//
compound: O=C(O)C(Cc1ccccc1)NC(c1ccc(Cl)cc1)P(=O)(O)O (stereo not given)
unit of measurement: %
growth inhibition: -4.8
//
compound: CC1C(=O)CCC2CCCCC21 (stereo not given)
unit of measurement: %
growth inhibition: 12.2
//
compound: CO/N=C\c1cc[n+](C)cc1
unit of measurement: %
growth inhibition: 55
//
compound: NNC(=O)c1ccc(OCc2nc3ccccc3[nH]2)cc1
unit of measurement: %
growth inhibition: -87.2
//
compound: COc1cc(C(=O)Nc2ccc(N3CCCCC3)cc2)cc(OC)c1OC
unit of measurement: %
growth inhibition: 14.6
//
compound: CC12CC3CC(C)(C1)CC(CN=C(N)CS)(C3)C2
unit of measurement: %
growth inhibition: 99.2
//
compound: CC(=O)OCC1OCOC2C(COC(C)=O)OCOC12 (stereo not given)
unit of measurement: %
growth inhibition: 3.85
//
compound: C=CCCCCCCCCCCC
unit of measurement: %
growth inhibition: 1.95
//
compound: CC1(C)OC2OC(CI)C3OC(C)(C)OC3C2O1 (stereo not given)
unit of measurement: %
growth inhibition: 12.6
//
compound: CCOc1ccc2cc3c(nc2n1)[nH]c1ccccc13
unit of measurement: %
growth inhibition: 8.25
